- MEASUREMENT TARGET: human chemokine receptor 2 isoform B (Homo sapiens, UniProt P41597)
- ASSAY: Calcium mobilization assay (CHOK1-CCR2B-A5 cells, FLIPR, MCP-1 stimulated)
- ASSAY SETUP: Ca mobilisation assay for CCR2, antagonist activity, 50% inhibition of specific calcium increases after 20 nM MCP-1
MEASURED QUANTITY: pIC50
Keep it numeric: pIC50 is minus log10 of the concentration in mol/L.

### Prompt Can you share its pIC50? I mean this compound: `C[C@H]1C(=O)N2[C@@H](CCC(=O)N3CCC4(CC4)[C@H](O)C3)CC[C@H]2CN1C(=O)Nc1ccc(C(F)(F)F)c(Cl)c1`
### Response 7.69

### Prompt Can you share its pIC50? I mean this compound: `C[C@H]1C(=O)N2[C@@H](CCCN3CCC4(CC4)C(F)(F)C3)COC[C@H]2CN1C(=O)Nc1ccc(Cl)c(Cl)c1`
### Response 7.32

### Prompt Can you share its pIC50? I mean this compound: `C[C@H]1C(=O)N2[C@@H](CCC(=O)N3CCC4(CC4)[C@H](O)C3)CCC[C@H]2CN1C(=O)Nc1ccc(Cl)c(Cl)c1`
### Response 7.97

====

Assignment: determine reported pIC50 for the given compounds.
- MEASUREMENT TARGET: human chemokine receptor 2 isoform B (Homo sapiens)
- ASSAY: Calcium mobilization assay (CHOK1-CCR2B-A5 cells, FLIPR, MCP-1 stimulated)
- ASSAY SETUP: Ca mobilisation assay for CCR2, antagonist activity, 50% inhibition of specific calcium increases after 20 nM MCP-1
Keep it numeric: pIC50 is minus log10 of the concentration in mol/L.

### Prompt Can you share its pIC50? I mean this compound: C[C@H]1C(=O)N2[C@H](CCN3CCC4(CC4)[C@H](O)C3)CCC[C@@H]2CN1C(=O)Nc1ccc(Cl)c(Cl)c1 (racemic) [Example 38]
### Response 8.06

### Prompt Can you share its pIC50? I mean this compound: `O=C(Nc1ccc(Cl)c(Cl)c1)N1CCC(=O)N2[C@@H](CCN3CCC4(CC4)[C@H](O)C3)CC[C@H]2C1`
### Response 6.84

### Prompt Can you share its pIC50? I mean this compound: C[C@H]1C(=O)N2C(CN1C(=O)Nc1ccc(Cl)c(Cl)c1)OCCC[C@H]2CN1CCC2(CC2)[C@H](O)C1 (stereo partly drawn)
### Response 8.43

### Prompt Can you share its pIC50? I mean this compound: `C[C@H]1C(=O)N2[C@@H](CCN3CCC4(CC4)[C@H](O)C3)CO[C@@H]2CN1C(=O)Nc1ccc(Cl)c(Cl)c1`
### Response 8.66

### Prompt Can you share its pIC50? I mean this compound: `C[C@H]1C(=O)N2[C@@H](CCC(=O)N3CCC4(CC4)[C@H](O)C3)CC[C@H]2CN1C(=O)Nc1ccc(Cl)c(Cl)c1`
### Response 7.39

### Prompt Can you share its pIC50? I mean this compound: C[C@H]1C(=O)N2C(CN1C(=O)Nc1ccc(Cl)c(Cl)c1)OC[C@@H]2CC(=O)N1CCC2(CC2)[C@H](O)C1 (stereo partly drawn)
### Response 6.11

====

- MEASUREMENT TARGET: human chemokine receptor 2 isoform B (Homo sapiens, UniProt P41597)
- ASSAY: Calcium mobilization assay (CHOK1-CCR2B-A5 cells, FLIPR, MCP-1 stimulated)
- ASSAY SETUP: Ca mobilisation assay for CCR2, antagonist activity, 50% inhibition of specific calcium increases after 20 nM MCP-1
Mark 1 (yes) for IC50 under 10 nM, 0 (no) if at or over.

### Prompt Quick check: IC50 of `C[C@H]1C(=O)N2[C@@H](CCCN3CCC4(CC4)C(F)(F)C3)COC[C@H]2CN1C(=O)Nc1ccc(C(F)(F)F)c(Cl)c1` under 10 nM?
### Response 0 (no)

### Prompt Quick check: IC50 of `C[C@H]1C(=O)N2[C@@H](CCC(=O)N3CCC4(CC4)[C@H](O)C3)CO[C@@H]2CN1C(=O)Nc1ccc(C(F)(F)F)c(Cl)c1` under 10 nM?
### Response 1 (yes)

### Prompt Quick check: IC50 of `C[C@H]1C(=O)N2[C@H](CCN3CCC4(CC4)[C@H](O)C3)COC[C@@H]2CN1C(=O)Nc1ccc(Cl)c(Cl)c1` under 10 nM?
### Response 0 (no)

### Prompt Quick check: IC50 of `C[C@H]1C(=O)N2[C@@H](CCC(=O)N3CCC4(CC4)[C@H](O)C3)CO[C@H]2CN1C(=O)Nc1ccc(C(F)(F)F)c(Cl)c1` under 10 nM?
### Response 0 (no)

### Prompt Quick check: IC50 of `C[C@H]1C(=O)N2[C@@H](CCC(=O)N3CCC4(CC4)[C@H](O)C3)CCC[C@H]2CN1C(=O)Nc1ccc(C(F)(F)F)c(Cl)c1` under 10 nM?
### Response 0 (no)

### Prompt Quick check: IC50 of `C[C@H]1C(=O)N2[C@@H](CCN3CCC4(CC4)[C@H](O)C3)CC[C@H]2CN1C(=O)Nc1ccc(Cl)c(Cl)c1` under 10 nM?
### Response 1 (yes)

====

- MEASUREMENT TARGET: human chemokine receptor 2 isoform B (Homo sapiens, UniProt P41597)
- ASSAY: Calcium mobilization assay (CHOK1-CCR2B-A5 cells, FLIPR, MCP-1 stimulated)
- ASSAY SETUP: Ca mobilisation assay for CCR2, antagonist activity, 50% inhibition of specific calcium increases after 20 nM MCP-1
Mark MET for IC50 under 10 nM, NOT MET if at or over.

### Prompt Quick check: IC50 of C[C@H]1C(=O)N2[C@@H](CCC(=O)N3CCC4(CC4)[C@H](O)C3)CO[C@H]2CN1C(=O)Nc1ccc(Cl)c(Cl)c1 [Example 36] under 10 nM?
### Response MET

### Prompt Quick check: IC50 of C[C@H]1C(=O)N2[C@@H](CCN3CCS(=O)(=O)CC3)COC[C@H]2CN1C(=O)Nc1ccc(C(F)(F)F)c(Cl)c1 [Example 59] under 10 nM?
### Response NOT MET

### Prompt Quick check: IC50 of C[C@H]1C(=O)N2[C@@H](CCC(=O)N3CCC4(CC4)[C@H](O)C3)CO[C@@H]2CN1C(=O)/C=C/c1ccc(F)c(Cl)c1 [Example 26] under 10 nM?
### Response NOT MET

### Prompt Quick check: IC50 of C[C@H]1C(=O)N2[C@@H](CCN3CCC(F)(F)CC3)COC[C@H]2CN1C(=O)Nc1ccc(Cl)c(Cl)c1 [Example 56] under 10 nM?
### Response NOT MET

### Prompt Quick check: IC50 of C[C@H]1C(=O)N2C(CN1C(=O)Nc1ccc(Cl)c(Cl)c1)OCC[C@H]2CN1CCC2(CC2)[C@H](O)C1 (stereo partly shown) [Example 30] under 10 nM?
### Response MET

### Prompt Quick check: IC50 of C[C@H]1C(=O)N2[C@@H](CCN3CCC4(CC4)[C@H](O)C3)CO[C@H]2CN1C(=O)Nc1cccc(C(F)(F)F)c1 [Example 8] under 10 nM?
### Response NOT MET

### Prompt Quick check: IC50 of C[C@H]1C(=O)N2C(CN1C(=O)Nc1ccc(Cl)c(Cl)c1)OC[C@@H]2CCCN1CCC2(CC2)[C@H](O)C1 (stereo partly shown) [Example 16] under 10 nM?
### Response MET

### Prompt Quick check: IC50 of C[C@H]1C(=O)N2[C@@H](CCC(=O)N3CCC4(CC4)[C@H](O)C3)COC[C@H]2CN1C(=O)Nc1ccc(C(F)(F)F)c(Cl)c1 [Example 52] under 10 nM?
### Response NOT MET

### Prompt Quick check: IC50 of C[C@H]1C(=O)N2[C@@H](CCCN3CCC(F)(F)C3)CC[C@H]2CN1C(=O)Nc1ccc(Cl)c(Cl)c1 [Example 45] under 10 nM?
### Response NOT MET

### Prompt Quick check: IC50 of C[C@H]1C(=O)N2C(CN1C(=O)Nc1ccc(F)c(Cl)c1)OC[C@@H]2CCN1CCC2(CC2)[C@H](O)C1 (stereo partly shown) [Example 4] under 10 nM?
### Response NOT MET

### Prompt Quick check: IC50 of C[C@H]1C(=O)N2[C@@H](CCN3CCC4(CC4)[C@H](O)C3)CCC[C@H]2CN1C(=O)Nc1ccc(Cl)c(Cl)c1 [Example 65] under 10 nM?
### Response MET

### Prompt Quick check: IC50 of C[C@H]1C(=O)N2[C@@H](CCN3CCC(F)(F)CC3)COC[C@H]2CN1C(=O)Nc1ccc(C(F)(F)F)c(Cl)c1 [Example 57] under 10 nM?
### Response NOT MET

====

- MEASUREMENT TARGET: human chemokine receptor 2 isoform B (Homo sapiens, UniProt P41597)
- Sequence (P41597 1-360 isoform P41597-2): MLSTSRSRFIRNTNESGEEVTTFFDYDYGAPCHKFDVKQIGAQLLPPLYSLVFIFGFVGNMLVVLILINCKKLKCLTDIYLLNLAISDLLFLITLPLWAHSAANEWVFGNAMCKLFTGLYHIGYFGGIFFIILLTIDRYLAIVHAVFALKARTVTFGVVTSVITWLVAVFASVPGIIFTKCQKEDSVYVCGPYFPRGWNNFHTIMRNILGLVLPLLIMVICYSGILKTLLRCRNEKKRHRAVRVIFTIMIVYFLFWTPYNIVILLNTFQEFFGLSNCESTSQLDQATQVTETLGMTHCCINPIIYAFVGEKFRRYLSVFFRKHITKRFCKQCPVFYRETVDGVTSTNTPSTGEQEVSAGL
- ASSAY: Calcium mobilization assay (CHOK1-CCR2B-A5 cells, FLIPR, MCP-1 stimulated)
- ASSAY SETUP: Ca mobilisation assay for CCR2, antagonist activity, 50% inhibition of specific calcium increases after 20 nM MCP-1
Assignment: determine reported pIC50 for the given compounds.
Keep it numeric: pIC50 is minus log10 of the concentration in mol/L.

### Prompt Request: pIC50, test system human chemokine receptor 2 isoform B (Homo sapiens, UniProt P41597), entry `C[C@H]1C(=O)N2[C@@H](CCC(=O)N3CCC4(CC4)[C@H](O)C3)COC[C@H]2CN1C(=O)Nc1ccc(Cl)c(Cl)c1`
### Response 7.06

### Prompt Request: pIC50, test system human chemokine receptor 2 isoform B (Homo sapiens, UniProt P41597), entry `C[C@H]1C(=O)N2[C@@H](CCN3CCC4(CC4)[C@H](O)C3)CO[C@H]2CN1C(=O)Nc1ccc(Cl)c(Cl)c1`
### Response 8.24

### Prompt Request: pIC50, test system human chemokine receptor 2 isoform B (Homo sapiens, UniProt P41597), entry `C[C@H]1C(=O)N2[C@@H](CCCN3CC(F)(F)C(F)(F)C3)CC[C@H]2CN1C(=O)Nc1ccc(Cl)c(Cl)c1`
### Response 6.32

### Prompt Request: pIC50, test system human chemokine receptor 2 isoform B (Homo sapiens, UniProt P41597), entry `C[C@H]1C(=O)N2[C@@H](CCN3CCS(=O)(=O)CC3)COC[C@H]2CN1C(=O)Nc1ccc(Cl)c(Cl)c1`
### Response 6.38

### Prompt Request: pIC50, test system human chemokine receptor 2 isoform B (Homo sapiens, UniProt P41597), entry `C[C@H]1C(=O)N2[C@@H](CCN3CCC4(CC4)C(F)(F)C3)COC[C@H]2CN1C(=O)Nc1ccc(C(F)(F)F)c(Cl)c1`
### Response 7.46

### Prompt Request: pIC50, test system human chemokine receptor 2 isoform B (Homo sapiens, UniProt P41597), entry `C[C@H]1C(=O)N2[C@@H](CCCN3CCC(F)(F)CC3)CC[C@H]2CN1C(=O)Nc1ccc(Cl)c(Cl)c1`
### Response 7.58
